Form: system (UniProt:P28222), quantity (Ki), values below.
measure.name: Ki (nM)

Some entries whose results are on file:
- Cc1nc(-c2ccc(-c3ccc(C(=O)Nc4cc(OCCN(C)C)c(C#N)cn4)cc3)c(C3CC3)c2)no1 [Example 21]: 6.3
- COc1cc(-c2noc(C)n2)ccc1-c1ccc(C(=O)Nc2cc(OCCN(C)C)c(Br)cn2)cn1 [Example 43]: 1.5

[1] Cc1nc(-c2ccc(-c3ccc(C(=O)Nc4cc(OCCN(C)C)c(C#N)cn4)cc3)c(Cl)c2)no1 [Example 23]
[2] CN1CCc2cccc3c2[C@H]1Cc1ccc(O)c(O)c1-3 [Apomorphine, reference compound]
**Q:** Return label of the item with the larger Ki. Candidates: 1 , 2 . Reply briefly: the label of your chosen item.
**A:** 2
(2: 1760 nM, 1: 7.9 nM)

----------
# System: peripheral blood-mononuclear blood cells
# experiment: Healthy blood cells viability assay
# Format: cell-based
# test.parameters: 48 h treatment, read-out: EC50 (uM), cytotoxic capacity on healthy cells
Counter-ions that a name gives are not always drawn.
measure.name: EC50 (µM)
Give a bare numeral; the unit µM is implied.

**Q:** Given COc1ccc(NC(=O)c2ccc(-c3ccc(-c4noc(C)n4)cc3C)cc2)cc1OCCN(C)C [SB41, hydrochloride, reference compound] , respond with its EC50.
**A:** 12.5

----------
# pKi measurements, system: human 5-HT1B receptor (Homo sapiens (Human))
# Sequence (P28222 whole entry): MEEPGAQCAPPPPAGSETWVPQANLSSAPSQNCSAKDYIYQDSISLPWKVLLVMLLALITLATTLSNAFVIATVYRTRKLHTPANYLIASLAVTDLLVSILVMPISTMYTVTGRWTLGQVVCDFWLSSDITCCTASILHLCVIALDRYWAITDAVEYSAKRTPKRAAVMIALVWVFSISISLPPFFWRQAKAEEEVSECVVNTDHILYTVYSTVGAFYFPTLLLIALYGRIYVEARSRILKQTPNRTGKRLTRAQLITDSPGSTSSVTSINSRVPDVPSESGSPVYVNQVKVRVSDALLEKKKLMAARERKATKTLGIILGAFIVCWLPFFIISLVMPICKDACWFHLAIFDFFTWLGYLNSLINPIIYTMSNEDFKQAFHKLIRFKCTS
Counter-ions that a name gives are not always drawn.
Please report pKi as the negative decimal logarithm of the molar concentration, giving only the number.

* COc1ccc(NC(=O)c2ccc(-c3ccc(-c4noc(C)n4)cc3C)cc2)cc1OCCN(C)C [SB41, hydrochloride, reference compound] | 9.22

**Q:** Report its pKi with human 5-HT1B receptor (Homo sapiens (Human)) as the test system: Cc1nc(-c2ccc(-c3ccc(C(=O)Nc4cc(OCCN(C)C)c(Br)cn4)cn3)c(F)c2)no1 [Example 40]
**A:** 8.46

**Q:** Look up and report measured pKi (human 5-HT1B receptor (Homo sapiens (Human))) for the following molecule: Cc1nc(-c2ccc(-c3ccc(C(=O)Nc4cc(OCCN(C)C)c(Br)cn4)cn3)c(C(F)(F)F)c2)no1 [Example 42]
**A:** 8.70

**Q:** Using human 5-HT1B receptor (Homo sapiens (Human)) as the test system, report measured pKi of Cc1nc(-c2ccc(-c3ccc(NC(=O)c4ccc(Br)c(OCCN(C)C)c4)cn3)c(F)c2)no1 [Example 65] .
**A:** 9.30

----------
A short record of pKi observed with human 5-HT2A receptor (Homo sapiens (Human), UniProt P28223) follows.
Sequence (P28223 whole entry): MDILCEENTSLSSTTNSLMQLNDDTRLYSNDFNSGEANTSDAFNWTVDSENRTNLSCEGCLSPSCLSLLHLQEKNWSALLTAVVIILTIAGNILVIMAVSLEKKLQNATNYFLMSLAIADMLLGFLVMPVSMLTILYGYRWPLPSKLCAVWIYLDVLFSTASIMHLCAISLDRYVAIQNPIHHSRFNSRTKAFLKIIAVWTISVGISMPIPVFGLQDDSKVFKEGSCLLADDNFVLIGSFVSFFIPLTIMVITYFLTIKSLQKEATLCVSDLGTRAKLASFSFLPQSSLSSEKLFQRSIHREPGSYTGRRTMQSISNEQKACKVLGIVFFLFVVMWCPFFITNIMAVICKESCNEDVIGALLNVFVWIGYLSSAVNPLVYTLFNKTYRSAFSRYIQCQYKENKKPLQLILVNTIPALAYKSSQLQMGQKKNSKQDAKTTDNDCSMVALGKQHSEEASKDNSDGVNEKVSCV
Where a name gives a salt, the structure may show the parent alone.
The quantity pKi is defined as the negative base-10 logarithm of the molar concentration.

Study these solved cases before continuing.
• Cc1nc(-c2ccc(-c3ccc(C(=O)Nc4cc(OCCN(C)C)c(Br)cn4)cn3)c(C(F)(F)F)c2)no1 = 5.46
• Cc1nc(-c2ccc(-c3ccc(C(=O)N4CCc5cc6c(cc54)C4(CCN(C)CC4)CO6)cc3)c(C)c2)no1 [SB9, hydrochloride, reference compound] = 8.23
• COc1ccc(NC(=O)c2ccc(-c3ccc(-c4noc(C)n4)cc3C)cc2)cc1OCCN(C)C [SB41, hydrochloride, reference compound] = 6.84
• Cc1nc(-c2ccc(-c3ccc(C(=O)Nc4cc(OCCN(C)C)c(Br)cn4)cn3)c(F)c2)no1 = 5.82
• Cc1nc(-c2ccc(-c3ccc(NC(=O)c4ccc(Br)c(OCCN(C)C)c4)cn3)c(F)c2)no1 = 6.00

**Q:** Output reported pKi of the compound COc1cc(-c2noc(C)n2)ccc1-c1ccc(C(=O)Nc2cc(OCCN(C)C)c(Br)cn2)cn1 on human 5-HT2A receptor (Homo sapiens (Human), UniProt P28223).
**A:** 5.70

**Q:** Determine reported pKi for Cc1nc(-c2ccc(-c3ccc(C(=O)Nc4cc(OCCN(C)C)c(Br)cn4)cn3)c(Cl)c2)no1 ; test system: human 5-HT2A receptor (Homo sapiens (Human), UniProt P28223).
**A:** 6.00

**Q:** // output pKi; input CN1CCc2cccc3c2[C@H]1Cc1ccc(O)c(O)c1-3 [Apomorphine, reference compound] ; system human 5-HT2A receptor (Homo sapiens (Human), UniProt P28223)
**A:** 8.16

----------
# experiment: Healthy blood cells viability assay
# Type: cell-based
# test.parameters: 48 h treatment, healthy peripheral blood mononuclear cells; read-out: EC50 (uM), cytotoxic capacity on healthy cells
# Method: 0.5×10^6 peripheral blood-mononuclear blood cells per mL were cultured in completed RPM medium, supplemented with 10% FBS. Compounds were added to the medium at 0.5/1/5/10/50 μM, while controls were treated with equivalent concentration of vehicle (DMSO). […] EC50 was calculated with the Prism GraphPad software.
measure.name: EC50 at 48 h

* Cc1nc(-c2ccc(-c3ccc(C(=O)Nc4cc(OCCN(C)C)c(C#N)cn4)cc3)c(C3CC3)c2)no1 | > 50 µM
* Cc1nc(-c2ccc(-c3ccc(C(=O)Nc4cc(OCCN(C)C)c(C#N)cn4)cn3)c(C3CC3)c2)no1 | > 50 µM

**Q:** Identify measured EC50 at 48 h corresponding to Cc1nc(-c2ccc(-c3ccc(C(=O)Nc4cc(OCCN(C)C)c(C#N)cn4)cc3)c(Cl)c2)no1
**A:** > 50 µM

----------
Quick record of Ki values for human 5-HT1B receptor (Homo sapiens (Human), UniProt P28222).
Give the quantity in nM, number only.

• COc1cc(-c2noc(C)n2)ccc1-c1ccc(C(=O)Nc2cc(OCCN(C)C)c(C#N)cn2)cn1 = 126

**Q:** Hello, please tell me recorded Ki for this one: Cc1nc(-c2ccc(-c3ccc(C(=O)Nc4ccc(C#N)c(OCCN(C)C)n4)cn3)c(C3CC3)c2)no1
**A:** 48.3

**Q:** Given Cc1nc(-c2ccc(-c3ccc(C(=O)Nc4cc(OCCN(C)C)c(Br)cn4)cn3)c(Cl)c2)no1 , respond with its Ki.
**A:** 0.3

----------
The following molecules each carry a recorded pKi for human 5-HT2A receptor (Homo sapiens (Human)).
pKi: −log10 of the molar value.

**Q:** Query pKi for Cc1nc(-c2ccc(-c3ccc(C(=O)Nc4ccc(C#N)c(OCCN(C)C)n4)cn3)c(C3CC3)c2)no1
**A:** < 5.00

**Q:** For Cc1nc(-c2ccc(-c3ccc(C(=O)Nc4cc(OCCN(C)C)c(C#N)cn4)cn3)c(C3CC3)c2)no1 , write its pKi.
**A:** < 5.00

**Q:** Please list pKi recorded for the molecule COc1cc(-c2noc(C)n2)ccc1-c1ccc(C(=O)Nc2cc(OCCN(C)C)c(C#N)cn2)cn1
**A:** < 5.00
